Numbers sourced from paper PMC8138313.

In this section, each of the compounds is paired with its reported IC50.
molecular target: HLA A*2402 (Homo sapiens, UniProt P04439, D101N/D140Y/D185E/E176V/E190D/F33S/G103R/G107R/I119L/I121M/I306V/K335N/L105A/L180Q/L300P/N151K/N90K/Q86E/Q94H/R106L/R138H/R89G/T104I/T345S/V100E/W191G/Y123F); test: HLA class I binding assay (cell-free competition, fluorescence polarization)
Where a SMILES comes first, the peptide text is derived from it.

compound	IC50
CC(C)[C@H](NC(=O)[C@H](Cc1ccccc1)NC(=O)[C@H](CCC(N)=O)NC(=O)[C@H](Cc1ccccc1)NC(=O)CNC(=O)CNC(=O)[C@H](CCCCN)NC(=O)CNC(=O)[C@@H](N)Cc1ccc(O)cc1)C(=O)N[C@@H](Cc1ccccc1)C(=O)O (H-YGKGGFQFVF-OH)	231 nM
N=C(N)NCCC[C@H](NC(=O)[C@H](Cc1ccc(O)cc1)NC(=O)[C@H](CCCCN)NC(=O)[C@@H]1CCCN1C(=O)[C@H](Cc1c[nH]cn1)NC(=O)[C@@H](N)CO)C(=O)N[C@@H](CC(N)=O)C(=O)N[C@@H](Cc1ccccc1)C(=O)N[C@@H](CCCCN)C(=O)N[C@@H](Cc1ccccc1)C(=O)O (H-SHPKYRNFKF-OH)	16600 nM
CC(C)[C@H](NC(=O)[C@H](CCCNC(=N)N)NC(=O)[C@H](CC(N)=O)NC(=O)[C@H](CCCCN)NC(=O)[C@H](Cc1ccc(O)cc1)NC(=O)[C@@H](NC(=O)[C@H](CC(N)=O)NC(=O)[C@H](Cc1ccc(O)cc1)NC(=O)[C@@H](N)Cc1c[nH]cn1)[C@@H](C)O)C(=O)N[C@@H](Cc1ccccc1)C(=O)O (H-HYNTYKNRVF-OH)	3000 nM

----------
The following compounds have recorded IC50 on HLA A*0301 (Homo sapiens, UniProt P04439).
Where a SMILES comes first, the peptide text is derived from it.

compound	targetOrSystem	IC50, µM
CC[C@H](C)[C@H](NC(=O)[C@H](CCSC)NC(=O)[C@H](CCCCN)NC(=O)[C@H](CCSC)NC(=O)[C@@H](NC(=O)[C@@H](N)CC(C)C)[C@@H](C)O)C(=O)N[C@@H](CC(N)=O)C(=O)N[C@@H](CC(N)=O)C(=O)N[C@@H](CCCCN)C(=O)O (H-LTMKMINNK-OH)	HLA A*0301 (Homo sapiens, UniProt P04439)	0.472
CC[C@H](C)[C@H](N)C(=O)N[C@H](C(=O)N[C@@H](CC(N)=O)C(=O)N[C@@H](CCCCN)C(=O)N[C@@H](CC(N)=O)C(=O)N[C@@H](CCCCN)C(=O)N[C@H](C(=O)N[C@H](C(=O)N[C@H](C(=O)N[C@@H](Cc1ccc(O)cc1)C(=O)O)[C@@H](C)CC)[C@@H](C)O)C(C)C)[C@@H](C)O (H-ITNKNKVTIY-OH)	HLA A*0301 (Homo sapiens, UniProt P04439)	8.72
CC(C)[C@H](NC(=O)[C@H](CO)NC(=O)[C@H](CCC(=O)O)NC(=O)[C@H](Cc1ccccc1)NC(=O)[C@H](Cc1ccccc1)NC(=O)[C@@H](NC(=O)[C@@H](N)[C@@H](C)O)[C@@H](C)O)C(=O)N[C@@H](CO)C(=O)N[C@@H](Cc1ccc(O)cc1)C(=O)O (H-TTFFESVSY-OH)	HLA A*0301 (Homo sapiens, UniProt P04439)	658
